Assay: Single-dose toxicity (MTD) in SD rats
Assay type: in vivo
Settings: in vivo, po; SD rat; single intragastrical administration; read-out: Maximum tolerance dose (MTD)
assay_metric: MTD (mg/kg)
Hi! Could you send only the number? It should be in mg/kg, unit omitted.

## Input What does the record list as MTD for CN[C@H]1CC[C@]23C[C@]24CC[C@]2(C)C(C(C)=O)=CC[C@@]2(C)[C@@H]4CC[C@H]3C1(C)C [Compound 369] ?
## Output 1000

====

Test: Pharmacokinetics in SD rats
Format: in vivo, rat
Conditions: male, SD, rat, in vivo, po, 2 mg/kg
assay_metric: AUC(0-t) (ng·h/mL)
Hi! Could you send only the number? It should be in ng·h/mL, unit omitted.

## Input What does the record list as AUC(0-t) for CN[C@H]1CC[C@]23C[C@]24CC[C@]2(C)C(C(C)=O)=CC[C@@]2(C)[C@@H]4CC[C@H]3C1(C)C ?
## Output 84.6

====

Assay: Pharmacokinetics in Beagle canines
Type: in vivo
Details: male, Beagle, dog, in vivo, po, 2 mg/kg
assay_metric: Cmax

## Input What does the record list as Cmax for CN[C@H]1CC[C@]23C[C@]24CC[C@]2(C)C(C(C)=O)=CC[C@@]2(C)[C@@H]4CC[C@H]3C1(C)C ?
## Output 43.4 ng/mL

====

Assay: Pharmacokinetics in SD rats
Assay type: in vivo, rat
Conditions: male, SD, rat, in vivo, po, 2 mg/kg
assay_metric: Cmax (ng/mL)
Hi! Could you send only the number? It should be in ng/mL, unit omitted.

## Input What does the record list as Cmax for CN[C@H]1CC[C@]23C[C@]24CC[C@]2(C)C(C(C)=O)=CC[C@@]2(C)[C@@H]4CC[C@H]3C1(C)C [Compound 369] ?
## Output 11.4

====

Quick reference for APD, Post-administration among some compounds
Test system: ventricular papillary muscle cell of guinea pig
Assay: Action potential of the ventricular papillary muscle cell of guinea pig (electrophysiological recording)
Assay type: cell-based
Conditions: screening stage; 0.05 μM; about 20 min perfusion
In your answer, state the number alone without any accompanying words.

## Input What does the record list as APD, Post-administration for CN[C@H]1CC[C@]23C[C@]24CC[C@]2(C)C(C(=O)COC(=O)CCC(=O)O)=CC[C@@]2(C)[C@@H]4CC[C@H]3C1(C)C.Cl ?
## Output 0.1102

## Input What does the record list as APD, Post-administration for CN[C@H]1CC[C@]23C[C@]24CC[C@]2(C)C(C(C)=O)=C(C)C[C@@]2(C)[C@@H]4CC[C@H]3C1(C)C [Compound 383a] ?
## Output 0.0948

## Input What does the record list as APD, Post-administration for CN[C@H]1CC[C@]23C[C@]24CC[C@]2(C)C(C(C)=O)=C(F)C[C@@]2(C)[C@@H]4CC[C@H]3C1(C)C ?
## Output 0.0985

## Input What does the record list as APD, Post-administration for CN[C@H]1CC[C@]23C[C@]24CC[C@]2(C)C(C(=O)COC(C)=O)=CC[C@@]2(C)[C@@H]4CC[C@H]3C1(C)C ?
## Output 0.1073

## Input What does the record list as APD, Post-administration for CC(=O)C1=CC[C@@]2(C)[C@@H]3CC[C@H]4C(C)(C)[C@@H](N(C)C5CC5)CC[C@@]45C[C@@]35CC[C@]12C ?
## Output 0.0786

## Input What does the record list as APD, Post-administration for CN(C)[C@H]1CC[C@]23C[C@]24CC[C@]2(C)C(C(=O)CO)=CC[C@@]2(C)[C@@H]4CC[C@H]3C1(C)C [Compound 399a] ?
## Output 0.1103
